Recorded MIC values (Candida albicans 10231) are given below.

{"smiles_repr": "Cc1ccc(-c2cc(-c3ccccc3)nc3sc4c(=O)[nH]c(CN5CCN(C)CC5)nc4c23)cc1", "measurement_units": "µg/mL", "MIC": 64}
{"smiles_repr": "Cc1ccc(-c2cc(-c3ccccc3)nc3sc4c(=O)[nH]c(CN5CCOCC5)nc4c23)cc1", "measurement_units": "µg/mL", "MIC": 16}
{"smiles_repr": "Cc1cc(C)c2c3c(sc2n1)C(=O)NC1(CCCC1)N3", "measurement_units": "µg/mL", "MIC": 64}
{"smiles_repr": "Cc1cc(C)c2c3c(sc2n1)C(=S)NC1(CCCCC1)N3", "measurement_units": "µg/mL", "MIC": 16}
